Tested on: johnsongrass
Test: Test C pre-/postemergence herbicide test
Format: in vivo, Sorghum halepense
Conditions: 250 g ai/ha; scale 0-100; preemergence
Readout Name: Plant response rating, Johnsongrass
Numbers only.

Given Smiles: CCc1nc(C(C)(C)C)sc1C(=O)Nc1cccc(C(=O)NCC2CC2)c1
Data Value: 50
//
Given Smiles: C=CCNC(=O)c1cccc(NC(=O)c2cc(C(C)(C)C)nn2C)n1
Data Value: 60
//
Given Smiles: CCc1nn(C(C)C)nc1C(=O)Nc1cccc(C(=O)N2CCCCC2)c1
Data Value: 100
//
Given Smiles: CCc1nn(C(C)C)nc1C(=O)Nc1cccc(C(=S)N(C)C)c1
Data Value: 95

Input CCc1nn(C(C)C)nc1C(=O)Nc1cccc(C(=O)N(C)CC)c1 . Output Plant response rating, Johnsongrass: 100

====

System: redroot pigweed
Assay: Test A pre-/postemergence herbicide test
Format: in vivo, Amaranthus retroflexus
Conditions: Postemergence, 500 g ai/ha; 0 to 100 scale, 0 no effect, 100 complete control
Readout Name: Pigweed plant response rating

Compound: CC(=NO)c1cccc(NC(=O)c2cc(C(C)(C)C)n[nH]2)c1 [Compound 311]
Pigweed plant response rating: 0
//
Compound: CCCCOc1cccc(NC(=O)c2cc(C(C)(C)C)nn2CC)c1 [Compound 137]
Pigweed plant response rating: 90
//
Compound: C#CCNC(=O)c1cncc(NC(=O)c2cc(C(C)(C)C)nn2CC)n1 [Compound 289]
Pigweed plant response rating: 20
//
Compound: CCOC(=O)c1cc(NC(=O)c2cc(C(C)(C)C)nn2CC)ccc1F [Compound 89]
Pigweed plant response rating: 20
//
Compound: CCc1nc(C(C)(C)C)sc1C(=O)Nc1cccc(C(=O)N(CC)CC)n1 [Compound 214]
Pigweed plant response rating: 20
//
Compound: CCNC(=O)c1ccc(F)c(NC(=O)C2CC(C(C)(C)C)=NN2CC)c1 (racemic) [Compound 269]
Pigweed plant response rating: 35
//
Compound: Cn1nc(C(C)(C)C)cc1C(=O)Nc1cccc(C(=O)NC2CC2)n1 [Compound 315]
Pigweed plant response rating: 10
//
Compound: Cn1nc(C(C)(C)C)cc1C(=O)Nc1cccc(C#N)c1 [Compound 121]
Pigweed plant response rating: 90

Lab note: next compound to report on.
For the compound CCOC(=O)c1cccc(NC(=O)c2sc(C(C)(C)C)nc2CC)c1 [Compound 204] , the measured Pigweed plant response rating on redroot pigweed was 50

====

System: common (oilseed) sunflower
Experiment: Test C pre-/postemergence herbicide test
Assay type: in vivo, Helianthus annuus
Settings: 125 g ai/ha; scale 0 (no effect) to 100 (complete control); visual, 12 to 14 days; preemergence
Readout Name: Plant response rating, Sunflower
Answers are plain numbers.

As a guide, the following entries are already answered.
Given Smiles: CCN(CC)C(=O)c1ccnc(NC(=O)c2cc(C(C)(C)C)nn2CC)c1
Plant response rating, Sunflower: 0
--
Given Smiles: CCN1CCc2c(NC(=O)c3cc(C(C)(C)C)nn3CC)cccc2C1=O
Plant response rating, Sunflower: 0
--
Given Smiles: C#CCNC(=O)c1cccc(NC(=O)c2cc(C(C)(C)C)nn2CC)n1
Plant response rating, Sunflower: 0

Lab note: next compound to report on.
Input CC(=O)c1cccc(NC(=O)c2cc(C(C)(C)C)nn2CCF)c1 . Output Plant response rating, Sunflower: 50

====

Test system: velvetleaf
Assay: Test B pre-/postemergence herbicide test
Format: in vivo, Abutilon theophrasti
Conditions: 500 g ai/ha; visual rating 0-100, 0 no effect, 100 complete control; preemergence
Please enter rule met where Plant response rating, Velvetleaf is greater than or equal to 80, and rule not met where it is lower.

Worked cases, answers included:
Compound: CCNC(=O)c1cccc(NC(=O)c2nn(C(C)(C)C)cc2C(F)(F)F)c1 [Compound 170]
Discrete Label: rule not met

Compound: CCNC(=O)c1cccc(NC(=O)c2cc(C(C)(C)C)nn2CC)n1 [Compound 144]
Discrete Label: rule met

Compound: CCN(CC)C(=O)c1cccc(NC(=O)c2sc(C(C)(C)C)nc2C)c1 [Compound 199]
Discrete Label: rule not met

Pending compound:
stdin: Evaluate CC(C)(C)c1cc(C(=O)Nc2cccc(SC(F)(F)F)c2)n(CCF)n1 [Compound 132] : Plant response rating, Velvetleaf at minimum 80?
stdout: rule not met

====

Tested on: smallflower umbrella sedge
Experiment: Test C flooded paddy test
Format: in vivo, Cyperus difformis
Conditions: 62 g ai/ha, scale 0 to 100
Assign Sedge, Umbrella plant response rating to each entry below.
One number for each entry.

As a guide, the following entries are already answered.
Compound: CCNC(=O)c1cncc(NC(=O)c2cc(C(C)(C)C)nn2CC)c1
Sedge, Umbrella plant response rating: 0

Compound: CCN1N=C(C(C)(C)C)CC1C(=O)Nc1cc(C(=O)N2CC=CC2)ccc1F (racemic)
Sedge, Umbrella plant response rating: 35

Compound: CCN(C)C(=O)c1cccc(NC(=O)c2nn(C(C)C)nc2C)c1
Sedge, Umbrella plant response rating: 20

Record Sedge, Umbrella plant response rating for all entries; do not skip any.
1. CCn1nc(C(C)(C)C)cc1C(=O)Nc1cncc(C(=O)N2CC=CC2)n1
2. CCNC(=O)c1ccc(F)c(NC(=O)C2CC(C(C)(C)C)=NN2CC)c1 (racemic)
3. CCNC(=O)c1ccc(F)c(NC(=O)c2cc(C3(C)CC3)nn2CC)c1

stdout:
[0, 45, 80]

====

Assign Lambsquarters plant response rating to each entry below.
Test system: lambsquarters
Assay: Test B pre-/postemergence herbicide test
Format: in vivo, Chenopodium album
Details: postemergence, 500 g ai/ha; visual rating, scale 0 (no effect) to 100 (complete control)
Give bare numbers.

As a guide, the following entries are already answered.
Compound: CCn1nc(C(C)(C)C)cc1C(=O)Nc1cccc(OCCCF)c1 [Compound 138]
Lambsquarters plant response rating: 90

Compound: CCCCOc1cccc(NC(=O)c2cc(C(C)(C)C)nn2CC)c1 [Compound 137]
Lambsquarters plant response rating: 80

Compound: CCc1nc(C(C)(C)C)sc1C(=O)Nc1cc(C(=O)N(C)C)ccc1F [Compound 225]
Lambsquarters plant response rating: 70

Record Lambsquarters plant response rating for all entries; do not skip any.
1. CCn1nc(C(C)(C)C)cc1C(=O)Nc1cccc(C(C)=O)c1 [Compound 122]
2. CCNC(=O)c1cccc(NC(=O)c2nn(C(C)(C)C)cc2C(F)(F)F)c1 [Compound 170]
3. CCNC(=O)c1cccc(NC(=O)c2cc(C(C)(C)C)nn2CC)n1 [Compound 144]
4. CCOc1cccc(NC(=O)c2cn(C(C)(C)C)nc2C)c1 [Compound 190]
5. CCOc1cccc(NC(=O)c2cc(C(C)(C)C)nn2CC)c1 [Compound 136]
6. CCc1nc(C(C)(C)C)sc1C(=O)Nc1cccc(C(=O)N(CC)CC)c1 [Compound 205]
7. CCn1nc(C(C)(C)C)cc1C(=O)Nc1cc(C(=O)NCC2CC2)ccn1 [Compound 155]
8. CCOC(=O)c1cccc(NC(=O)c2sc(C(C)(C)C)nc2CC)c1 [Compound 204]

stdout:
0
70
90
80
100
70
90
50

====

Tested on: morningglory
Experiment: Test B pre-/postemergence herbicide test
Format: in vivo, Ipomoea coccinea
Details: 125 g ai/ha; 0 = no effect, 100 = complete control; preemergence
Assign Morningglory plant response rating (0 to 100 scale) to each entry below.
One number for each entry.

Given Smiles: CCn1nc(C(C)(C)C)cc1C(=O)Nc1cncc(C(=O)N2CC=CC2)n1
Data Value: 0
//
Given Smiles: CCn1nc(C2(C)CC2)cc1C(=O)Nc1cc(C(=O)N2CC=CC2)ccc1F
Data Value: 10
//
Given Smiles: CCOC(=O)c1ccnc(NC(=O)c2cn(C(C)(C)C)nc2CC)c1
Data Value: 0

Record Morningglory plant response rating (0 to 100 scale) for all entries; do not skip any.
1. CCn1nc(C(C)(C)C)cc1C(=O)Nc1ccc(OC)c(OC)c1
2. CCNC(=O)c1ccc(F)c(NC(=O)c2cc(C3(C)CC3)nn2CC)c1

stdout:
[10, 10]

Record Morningglory plant response rating (0 to 100 scale) for all entries; do not skip any.
1. CCOc1cccc(NC(=O)c2cn(C(C)(C)C)nc2C)c1
2. CCNC(=O)c1cc(NC(=O)c2cc(C(C)(C)C)nn2CC)ccn1
3. CCc1nc(C(C)(C)C)sc1C(=O)Nc1cccc(C(=O)N(C)CC)c1

stdout:
0
0
10

====

Tested on: large crabgrass
Test: Test B pre-/postemergence herbicide test
Type: in vivo, Digitaria sanguinalis
Settings: Preemergence, 500 g ai/ha; scale 0 to 100
Readout Name: Crabgrass, Large plant response rating
Answers are plain numbers.

As a guide, the following entries are already answered.
Given Smiles: CCn1nc(C(C)(C)C)cc1C(=O)Nc1cc(C(=O)OC(C)(C)C)ccc1F
Crabgrass, Large plant response rating: 0
--
Given Smiles: CCn1nc(C(C)(C)C)cc1C(=O)Nc1cccc(C(=O)NCC(C)C)c1
Crabgrass, Large plant response rating: 100
--
Given Smiles: CCNC(=O)c1cccc(NC(=O)c2cc(C(C)(C)C)nn2CCF)c1
Crabgrass, Large plant response rating: 90

Input CCn1nc(C(C)(C)C)cc1C(=O)Nc1cccc2c1CCN(C1CCCC1)C2=O . Output Crabgrass, Large plant response rating: 10
